Provenance of the data: patent US6426229B1

- method.description: Storage of aqueous solution or slurry for 60 days: HPLC analysis of components and appearance
- Assay type: physicochemical
- stated.conditions: keeping temperature 75° C.
measured.metric: Content of the compound of the formula [I] in aqueous solution after kept for 60 days

{"columns": ["compound", "value.observed"],
 "data": [
  ["O=C([O-])C[C@H](NCC(O)CN[C@@H](CC(=O)[O-])C(=O)[O-])C(=O)[O-].[Cu+2].[Na+].[Na+] [Example 128]", "47.9 wt. %"],
  ["O=C([O-])CN[C@@H](CC(=O)[O-])C(=O)[O-].[Na+].[Na+].[Na+] [Example 89]", "49.4 wt. %"],
  ["O=C([O-])CCN[C@@H](CC(=O)[O-])C(=O)[O-].[Na+].[Na+].[Na+]", "49.8 wt. %"],
  ["O=C([O-])CC(NCCCNC(CC(=O)[O-])C(=O)[O-])C(=O)[O-].[Na+].[Na+].[Ni+2] (centres unmarked) [Example 127]", "44.0 wt. %"],
  ["O=C([O-])CN(CCS(=O)(=O)[O-])CC(=O)[O-].[Na+].[Na+].[Na+]", "49.4 wt. %"],
  ["O=C([O-])C[C@H](NCC(O)CN[C@@H](CC(=O)[O-])C(=O)[O-])C(=O)[O-].[Na+].[Na+].[Na+].[Na+] [compound 47, reference compound]", "41.8 wt. %"],
  ["CN(CC(=O)[O-])CC(=O)[O-].[Na+].[Na+] [compound 41, disodium N-methyliminodiacetate, reference compound]", "29.6 wt. %"],
  ["O=C([O-])CN[C@@H](CC(=O)[O-])C(=O)[O-].[Na+].[Na+].[Na+] [compound 34, reference compound]", "30.6 wt. %"],
  ["O=C([O-])CN(CC(=O)[O-])c1ccccc1C(=O)[O-].[Na+].[Na+].[Na+]", "49.8 wt. %"],
  ["C[C@@H](C(=O)[O-])N(CC(=O)[O-])CC(=O)[O-].[Na+].[Na+].[Na+]", "49.8 wt. %"],
  ["O=C([O-])CC(NCCCNC(CC(=O)[O-])C(=O)[O-])C(=O)[O-].[Na+].[Na+].[Ni+2] (centres unmarked) [compound 51, reference compound]", "38.4 wt. %"],
  ["O=C([O-])C[C@@H](C(=O)[O-])N(CC(=O)[O-])CC(=O)[O-].[Na+].[Na+].[Na+].[Na+]", "49.5 wt. %"],
  ["O=C([O-])C[C@H](NCCCN[C@@H](CC(=O)[O-])C(=O)[O-])C(=O)[O-].[Na+].[Na+].[Na+].[Na+] [Example 115]", "44.3 wt. %"],
  ["O=C([O-])C[C@H](NCC(O)CN[C@@H](CC(=O)[O-])C(=O)[O-])C(=O)[O-].[Na+].[Na+].[Na+].[Na+] [Example 116]", "44.7 wt. %"]
]}

====

Collected Compression strength after stored for 2 months values appear next to each entry.
- method.description: Compression strength (hardening property) of powder stored under load for 2 months
- Format: physicochemical
- stated.conditions: Load 100 (table head [Kg]; text 100 g/cm^2); 20-30° C., relative humidity 40-70%
measured.metric: Compression strength after stored for 2 months (Kg/cm^2)

{"columns": ["compound", "value.observed"],
 "data": [
  ["O=C([O-])C[C@H](NCCN[C@@H](CC(=O)[O-])C(=O)[O-])C(=O)[O-].[Na+].[Na+].[Ni+2] [compound 28, reference compound]", 2.5],
  ["O=C(O)C[C@H](NCC(O)CN[C@@H](CC(=O)O)C(=O)O)C(=O)O [compound 25, reference compound]", 2.5],
  ["O=C([O-])CN[C@@H](CC(=O)[O-])C(=O)[O-].[Na+].[Na+].[Na+] [Example 5]", 1.2],
  ["O=C(O)C[C@@H](C(=O)O)N(CC(=O)O)CC(=O)O [compound 7, (S)-aspartic acid-N,N-diacetic acid, reference compound]", 2.3],
  ["O=C(O)CCN[C@@H](CC(=O)O)C(=O)O [compound 6, (S)-aspartic acid-N-monopropionic acid, reference compound]", 2.5],
  ["C[C@@H](C(=O)[O-])N(CC(=O)[O-])CC(=O)[O-].[Na+].[Na+].[Na+] [compound 4, reference compound]", 2.8],
  ["O=C([O-])CN(CCS(=O)(=O)[O-])CC(=O)[O-].[Na+].[Na+].[Na+] [Example 28]", 1.3]
]}
